Kindly supply the reported growth values for the records listed here.
# Test system: NCI-H226 lung
# procedure.text: NCI-60 one-dose screen, 48 h (100 = growth as untreated, 0 = no growth, -100 = all killed)
# experimental.setup: 10 µM unless noted
About 83,000 compounds went through this panel and 20% of them were active in at least one assay; those are over-represented in the sample as a whole.
Report as a plain number; the unit % is understood.

### Prompt Sample O=C1c2cccc3cccc(c23)C(=O)N1N1C(=O)c2cccc3c(N4CCNCC4)ccc(c23)C1=O — what was its growth?
### Response 98.6

### Prompt Sample CC(=O)N1N=C(c2ccc(Nc3nc(Nc4ccc(F)cc4)nc(Nc4ccc(F)cc4)n3)cc2)CC1c1ccccc1 (stereo not given) — what was its growth?
### Response 102

### Prompt Sample c1cc(NCCCCN2CCOCC2)c2ccc3c(ccc4c(NCCN5CCOCC5)ccnc43)c2n1 — what was its growth?
### Response 79.6

### Prompt Sample CCCCSc1ccc2nc(-c3ccc(OCCCN=C(N)N)cc3)cn2c1 — what was its growth?
### Response 72.3

### Prompt Sample N=C1/C(=C2\NC3C=CC=CC3S2)C(c2ccc(Cl)cc2)C2C(=O)N(c3ccccc3)C(=S)N12 (stereo not given) — what was its growth?
### Response 91.6

----------
# Tested on: HOP-92 NSCLC
# procedure.text: NCI-60 one-dose screen, 48 h
# experimental.setup: 10 µM unless noted
# Procedure: Growth inhibition of the HOP-92 human Non-Small Cell Lung tumor cell line is measured as a screen for anti-cancer activity. Cells are grown in 96 well plates and exposed to the test compound for 48 hours. Compounds are tested at a single concentration, which is 10^-5 M for most compounds. The reported endpoint is percent growth (GI% or GIPRCNT), where numbers from 0 - 100% represent growth inhibition, and numbers from -100% - 0 represent cell death. […]
About 83,000 compounds went through this panel and 20% of them were active in at least one assay; those are over-represented in the sample as a whole. Active and inactive are the calls of the source. How the source made its calls: active means growth percent below 10; inactive means the rest.
Your answer must be one of the following: active, inactive

### Prompt Please state the recorded outcome for this molecule: Cc1nc2sc(C(=O)Nc3cccc4ccccc34)c(N)c2cc1C(=O)/C=C/c1ccccc1
### Response inactive

### Prompt Please state the recorded outcome for this molecule: COc1ccc(Nc2ncnc3ccc(-c4cncc(NS(C)(=O)=O)c4)cc23)cc1Cl
### Response active

### Prompt Please state the recorded outcome for this molecule: O=C(/C=C/c1ccc([N+](=O)[O-])cc1)c1ccccc1
### Response inactive

### Prompt Please state the recorded outcome for this molecule: COc1cc(CNC(=O)CCCC/C=C/C(C)C)ccc1OCc1cn(-c2ccc([N+](=O)[O-])cc2)nn1
### Response inactive

### Prompt Please state the recorded outcome for this molecule: Cc1ccc(NC(=O)N/C(N)=N/c2nc(=O)c3ccccc3s2)cc1
### Response inactive

### Prompt Please state the recorded outcome for this molecule: Cc1c(CC(=O)OCCO)cc(-c2ccc(Cl)cc2)n1-c1ccccc1
### Response inactive

### Prompt Please state the recorded outcome for this molecule: COC1=CC(c2ccc[nH]2)=N/C1=C\c1[nH]c(C)c(C(=O)Oc2ccccc2)c1C
### Response active

### Prompt Please state the recorded outcome for this molecule: O=c1cc(N/N=C/c2ccc(F)cc2)c2cc(Cl)ccc2[nH]1
### Response active

### Prompt Please state the recorded outcome for this molecule: COc1ccc2c(c1)oc1c(C)c3c(c(C)c12)C(=O)N(Nc1ccccc1)C3=O
### Response inactive

### Prompt Please state the recorded outcome for this molecule: Cc1ccc(C(=O)N(CCCN)[C@@H](c2nc3cc(Cl)ccc3c(=O)n2Cc2ccccc2)C(C)C)cc1
### Response active

### Prompt Please state the recorded outcome for this molecule: Cc1nc(-n2[nH]c(=O)ccc2=O)sc1N=Nc1ccccc1
### Response inactive

### Prompt Please state the recorded outcome for this molecule: C=C[C@]1(C)C=C2CC[C@@H]3C(C)(C)C(=O)CC[C@@]3(C)[C@@H]2CC1
### Response inactive

### Prompt Please state the recorded outcome for this molecule: N#Cc1cc(-c2ccnc(Nc3ccc(NC(=O)CCl)cc3)n2)ccc1N1CCCC1
### Response inactive

### Prompt Please state the recorded outcome for this molecule: Nc1ccc(-c2nc3ccc4[nH]ncc4c3c3c2CCCC3)cc1F
### Response inactive

### Prompt Please state the recorded outcome for this molecule: CCN(CC)CCOc1ccccc1C
### Response inactive

### Prompt Please state the recorded outcome for this molecule: C#CCOc1cccc(Nc2ncc3ncn(C4CCN(C(=O)CCl)C4)c3n2)c1 (centres undefined)
### Response inactive

### Prompt Please state the recorded outcome for this molecule: C=C(C)[C@@H]1CC[C@]2(C(=O)N3CCN(C)CC3)CC[C@]3(C)[C@H](CC[C@@H]4[C@@]5(C)CC(CCCNC(C)=O)(CCCNC(C)=O)[C@H](OC(C)=O)C(C)(C)[C@@H]5CC[C@]43C)[C@@H]12
### Response inactive

### Prompt Please state the recorded outcome for this molecule: CCN(c1cc(-c2ccc(CN3CCC(/C=C/S(=O)(=O)c4ccccc4)CC3)cc2)cc(C(=O)NCc2c(C)cc(C)[nH]c2=O)c1C)C1CCOCC1
### Response inactive

### Prompt Please state the recorded outcome for this molecule: CN1CCN(Cc2ccc(NC(=O)c3cccc(C#Cc4c(N)ncc5ccc(F)cc45)c3)cc2C(F)(F)F)CC1
### Response active
